- Procedure Details: Cytotoxicity against human […] cells assessed as cell growth at 10 uM
- Format: functional
- Measurement Parameters: Homo sapiens, RPMI8266; read-out: Activity
Reported Property: growth at 10 µM (%)
Quick note: give the figure in %, leave out the unit.

Smiles Text	growth at 10 µM, %
Cc1ccc(Nc2nc(C)cc(-c3cccnc3)n2)c(C)c1	86.7
CC(=O)c1ccccc1-c1ccc(-c2ccnc(NC(=O)Nc3cc(N4CCOCC4)cc(C(F)(F)F)c3)n2)cn1	79.7
CC(=O)c1ccc(-c2ccc(-c3ccnc(Nc4cc(C(F)(F)F)cc(C(F)(F)F)c4)n3)cn2)cc1	97.8
O=C(Nc1cc(C(F)(F)F)cc(C(F)(F)F)c1)Nc1nccc(-c2ccc(Nc3ccccc3)nc2)n1	102
CC(=O)Nc1cccc(-c2ccc(-c3ccnc(NC(=O)Nc4cc(C(F)(F)F)cc(C(F)(F)F)c4)n3)cn2)c1.Cl	38.1
FC(F)(F)c1cc(Nc2nccc(-c3ccc(-c4ccccc4)nc3)n2)cc(C(F)(F)F)c1	96.2

Query (molecule): `c1ccc(-c2ccc(-c3ccnc(Nc4ccc(N(c5ccccc5)c5ccccc5)cc4)n3)cn2)cc1` ; field requested: growth at 10 µM
110

Please do the same for `Cc1cc(-c2cccnc2)nc(NC(=O)c2cccc(C(F)(F)F)c2)n1` as well.
98.6

Please do the same for `FC(F)(F)c1cc(Nc2nccc(-c3ccc(Nc4ccccc4)nc3)n2)cc(C(F)(F)F)c1` as well.
98.3
